Reference source: ChEMBL document CHEMBL1151040

Tested on: Mus musculus
Assay: Effective dose of compound against serum interleukin 6 (IL-6) in C3H mice when administered intraperitoneally
Assay type: functional
Settings: ip
Measured attribute: ED50 (mg/kg)
Reply with just the number (in mg/kg).

I would be grateful if you could share the reported ED50 for `O=[N+]([O-])c1ccccc1C1=C(O)C2=C(CCC2)N2CCN=C12` .
8

# iterate: `OC1=C(c2ccccc2)C2=NCCN2C2=C1CCC2`
0.35

# iterate: `O=c1c2c(n3c(c1-c1ccccc1Cl)NCC3)CCC2`
0.5

# iterate: `Nc1ccccc1-c1c2n(c3c(c1=O)CCC3)CCN2`
4

# iterate: `COc1ccccc1-c1c2n(c3c(c1=O)CCC3)CCN2`
0.3
